Hey, just so you know, these numbers are from patent US20130251703A1.

Biological target: human HER3 endogenously expressed on human cancer cells (SK-Br-3, BT-474, MCF7) (human, UniProt P21860 20-1342)
Test: cell-based or functional assay
quantity: SK-Br-3 pAkt % inhibition (%)
The answer is to be given in %; state only the numeric part.

Item: MOR12604 (antibody, V domains shown, Tested as IgG) VH: QVQLVQSGAEVKKPGSSVKVSCKASGGTFSSYAISWVRQAPGQGLEWMGLIIPRYGKARYAQKFQGRVTITADESTSTAYMELSSLRSEDTAVYYCARNWPYYYMDFWGQGTLVTVSS VL: DIVLTQSPATLSLSPGERATLSCRASQNIVFNLAWYQQKPGQAPRLLIYDASNRATGVPARFSGSGSGTDFTLTISSLEPEDFAVYYCQQKKSMPLTFGQGTKVEIKR | SK-Br-3 pAkt % inhibition: 85

Item: MOR13658 (antibody, human IgG1, lambda, V domains shown, Tested as IgG) VH: QVQLVQSGAEVKKPGASVKVSCKASGYTFTSYDIHWVRQAPGQGLEWMGRIDPYSGNTNYAQKFQGRVTMTRDTSISTAYMELSRLRSEDTAVYYCARGSFYTRDSYFDVWGQGTLVTVSS VL: DIALTQPASVSGSPGQSITISCTGTSSDVGTYNQVSWYQQHPGKAPKLMIYGVSKRPSGVSNRFSGSKSGNTASLTISGLQAEDEADYYCASADHSYHTVFGGGTKLTVLG | SK-Br-3 pAkt % inhibition: 92

Item: MOR13655 (antibody, human IgG1, lambda, V domains shown, Tested as IgG) VH: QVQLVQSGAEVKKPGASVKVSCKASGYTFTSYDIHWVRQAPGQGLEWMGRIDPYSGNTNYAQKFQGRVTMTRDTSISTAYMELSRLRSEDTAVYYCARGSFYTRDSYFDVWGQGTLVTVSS VL: DIALTQPASVSGSPGQSITISCTGTSSDVGTYNQVSWYQQHPGKAPKLMIYGVSKRPSGVSNRFSGSKSGNTASLTISGLQAEDEADYYCSSATQKPDVTVFGGGTKLTVLG | SK-Br-3 pAkt % inhibition: 86

Item: MOR12605 (antibody, human IgG1, kappa, V domains shown, Tested as IgG) VH: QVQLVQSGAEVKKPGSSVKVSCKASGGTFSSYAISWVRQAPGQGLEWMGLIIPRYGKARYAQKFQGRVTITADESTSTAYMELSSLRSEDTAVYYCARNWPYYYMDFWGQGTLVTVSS VL: DIVLTQSPATLSLSPGERATLSCRASQNIVFNLAWYQQKPGQAPRLLIYDASNRATGVPARFSGSGSGTDFTLTISSLEPEDFAVYYCQQFRRKSNTFGQGTKVEIKR | SK-Br-3 pAkt % inhibition: 84

Item: MOR12603 (antibody, human IgG1, kappa, V domains shown, Tested as IgG) VH: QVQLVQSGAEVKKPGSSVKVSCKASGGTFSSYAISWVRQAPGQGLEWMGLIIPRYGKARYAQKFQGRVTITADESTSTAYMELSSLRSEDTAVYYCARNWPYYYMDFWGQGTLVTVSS VL: DIVLTQSPATLSLSPGERATLSCRASQNIVFNLAWYQQKPGQAPRLLIYDASNRATGVPARFSGSGSGTDFTLTISSLEPEDFAVYYCQQTKNRPPTFGQGTKVEIKR | SK-Br-3 pAkt % inhibition: 84

Item: MOR13657 (antibody, human IgG1, lambda, V domains shown, Tested as IgG) VH: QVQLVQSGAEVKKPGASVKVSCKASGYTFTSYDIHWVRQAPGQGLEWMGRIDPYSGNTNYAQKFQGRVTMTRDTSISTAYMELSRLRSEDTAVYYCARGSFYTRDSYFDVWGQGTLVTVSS VL: DIALTQPASVSGSPGQSITISCTGTSSDVGTYNQVSWYQQHPGKAPKLMIYGVSKRPSGVSNRFSGSKSGNTASLTISGLQAEDEADYYCSARDGWSEYVFGGGTKLTVLG | SK-Br-3 pAkt % inhibition: 91

Item: MOR13654 (antibody, human IgG1, lambda, V domains shown, Tested as IgG) VH: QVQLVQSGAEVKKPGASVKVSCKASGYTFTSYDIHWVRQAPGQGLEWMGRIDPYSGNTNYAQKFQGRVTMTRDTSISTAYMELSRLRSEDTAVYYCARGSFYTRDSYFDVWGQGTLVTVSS VL: DIALTQPASVSGSPGQSITISCTGTSSDVGTYNQVSWYQQHPGKAPKLMIYGVSKRPSGVSNRFSGSKSGNTASLTISGLQAEDEADYYCQSRGEYRPGWVFGGGTKLTVLG | SK-Br-3 pAkt % inhibition: 92

Item: MOR12606 (antibody, human IgG1, kappa, V domains shown, Tested as IgG) VH: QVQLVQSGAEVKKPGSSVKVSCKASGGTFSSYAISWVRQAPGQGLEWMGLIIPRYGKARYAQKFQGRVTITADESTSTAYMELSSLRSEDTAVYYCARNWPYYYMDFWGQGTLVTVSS VL: DIVLTQSPATLSLSPGERATLSCRASQNIVFNLAWYQQKPGQAPRLLIYDASNRATGVPARFSGSGSGTDFTLTISSLEPEDFAVYYCQQTKSKPSPTFGQGTKVEIKR | SK-Br-3 pAkt % inhibition: 85

Item: MOR12615 (antibody, human IgG1, lambda, V domains shown, Tested as IgG) VH: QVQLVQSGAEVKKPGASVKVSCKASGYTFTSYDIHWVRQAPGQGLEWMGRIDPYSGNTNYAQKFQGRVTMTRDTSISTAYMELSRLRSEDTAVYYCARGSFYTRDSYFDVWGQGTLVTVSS VL: DIALTQPASVSGSPGQSITISCTGTSSDVGTYNQVSWYQQHPGKAPKLMIYGVSKRPSGVSNRFSGSKSGNTASLTISGLQAEDEADYYCSSRDLIGHYVFGGGTKLTVLG | SK-Br-3 pAkt % inhibition: 86

Item: MOR13666 (antibody, human IgG1, lambda, V domains shown, Tested as IgG) VH: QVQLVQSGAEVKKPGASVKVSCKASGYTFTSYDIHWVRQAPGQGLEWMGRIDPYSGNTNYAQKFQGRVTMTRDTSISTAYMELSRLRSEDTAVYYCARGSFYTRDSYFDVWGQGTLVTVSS VL: DIALTQPASVSGSPGQSITISCTGTSSDVGTYNQVSWYQQHPGKAPKLMIYGVSKRPSGVSNRFSGSKSGNTASLTISGLQAEDEADYYCSTTTYSFHMVFGGGTKLTVLG | SK-Br-3 pAkt % inhibition: 90
